- Test system: ORYSAT (Rice, Tebonnet)
- experiment: Postemergence herbicidal evaluation
- Assay type: in vivo, Oryza sativa, (L.) Tebonnet
- run.parameters: rate 0.0620 kg/ha
Items are presented alongside their recorded Postemergence herbicidal rating, ORYSAT.

Sample answers from the record:
Cn1c(C(F)(F)F)cc(=O)n(-c2ccc3snc(-c4ccccn4)c3c2)c1=O ... 4.3
COC(=O)COc1ccsc1-c1nsc2ccc(-n3c(=O)cc(C(F)(F)F)n(C)c3=O)cc12 ... 3.5

Note down Postemergence herbicidal rating, ORYSAT recorded for CN(C(=O)c1nsc2ccc(-n3c(=O)cc(C(F)(F)F)n(C)c3=O)cc12)c1ccc(Cl)cc1
3.0

Name the recorded Postemergence herbicidal rating, ORYSAT of the molecule listed here: Cn1c(C(F)(F)F)cc(=O)n(-c2ccc3snc(-c4cccnc4)c3c2)c1=O
3.5

###

Item-by-item account of ZEAMX herbicidal rating
- Tested on: ZEAMX (Corn, Field)
- experiment: Postemergence herbicidal evaluation
- Assay type: in vivo, Zea mays, L.
- run.parameters: postemergence, rate 0.0620 kg/ha

Answered examples (3):
Cn1c(C(F)(F)F)cc(=O)n(-c2ccc3snc(C4OCC(C[S+](C)[O-])O4)c3c2)c1=O (stereo not shown) ... 5.0
C[C@@H]1C[C@H](C)OC(c2nsc3cc(F)c(-n4c(=O)cc(C(F)(F)F)n(C)c4=O)cc23)O1 (stereo partly shown) ... 6.0
Cn1c(C(F)(F)F)cc(=O)n(-c2ccc3snc(C4OCC(CBr)O4)c3c2)c1=O (stereo not shown) ... 3.5

State its ZEAMX herbicidal rating: Cn1c(C(F)(F)F)cc(=O)n(-c2ccc3snc(C4(C)OCCO4)c3c2)c1=O
4.0

###

- Test system: MOOVA (Monochoria vaginalis)
- experiment: Flooded paddy, preemergence weed control
- Type: in vivo, Presl.
- run.parameters: rate 0.0080 kg/ha, rated 3-4 weeks after treatment, 0-9 rating scale
# herbicidal rating, MOOVA annotations

Some entries whose results are on file:
Cn1c(C(F)(F)F)cc(=O)n(-c2ccc3snc(-c4ccsc4)c3c2)c1=O [Compound 1] ... 9.0
C[C@@H]1C[C@H](C)OC(c2nsc3cc(F)c(-n4c(=O)cc(C(F)(F)F)n(C)c4=O)cc23)O1 (stereo partly shown) [Compound 67] ... 0.0
Cn1c(C(F)(F)F)cc(=O)n(-c2ccc3snc(C4OCC(CCl)O4)c3c2)c1=O (stereo not shown) [Compound 72] ... 0.0

Indicate its recorded herbicidal rating, MOOVA; the molecule in question is Cn1c(C(F)(F)F)cc(=O)n(-c2ccc3snc(-c4cccs4)c3c2)c1=O [Compound 3]
9.0

###

- System: ZEAMX (Corn, Field)
- experiment: Postemergence herbicidal evaluation
- Format: in vivo, Zea mays, L.
- run.parameters: postemergence, rate 0.0320 kg/ha
recorded.endpoint: ZEAMX herbicidal rating
Lab note: record just the number, no unit beside it.

Field: example entries. Status: answers known.
Cn1c(C(F)(F)F)cc(=O)n(-c2ccc3snc(C4(O)N=C(C(C)(C)C)NC4=O)c3c2)c1=O (stereo not drawn) ... 3.5
Cn1c(C(F)(F)F)cc(=O)n(-c2cc3c(C4OCCCO4)nsc3cc2F)c1=O ... 6.0

Please give the documented ZEAMX herbicidal rating of Cn1c(C(F)(F)F)cc(=O)n(-c2ccc3snc(-c4nc5ccccc5[nH]c4=O)c3c2)c1=O
3.3

###

- Test system: GLXMAW (Soybean, Williams)
- experiment: Preemergence herbicidal evaluation
- Format: in vivo, Glycine max, (L.) Merr. cv Williams
- run.parameters: Rate 0.2500 kg/ha; rated 4-5 weeks after treatment
recorded.endpoint: Preemergence herbicidal rating GLXMAW
Returns: the value as a bare number; no unit string appended.

Cn1c(C(F)(F)F)cc(=O)n(-c2ccc3snc(-c4nccs4)c3c2)c1=O ... 6.5

Fill in reported Preemergence herbicidal rating GLXMAW for this entry: Cn1c(C(F)(F)F)cc(=O)n(-c2ccc3snc(-c4sccc4Cl)c3c2)c1=O
9.0

Using the record for CC(C)C1COC(c2nsc3ccc(-n4c(=O)cc(C(F)(F)F)n(C)c4=O)cc23)=N1 (centres unmarked) , state its measured Preemergence herbicidal rating GLXMAW.
9.0

Give recorded Preemergence herbicidal rating GLXMAW. CC1=CC(C)(C)OC(c2nsc3ccc(-n4c(=O)cc(C(F)(F)F)n(C)c4=O)cc23)C1 (centres unmarked)
6.0

Kindly indicate its recorded Preemergence herbicidal rating GLXMAW. Item: CCOc1cc(OCC)nc(-c2nsc3ccc(-n4c(=O)cc(C(F)(F)F)n(C)c4=O)cc23)n1
5.0

###

- Tested on: ORYSAT (Rice, Tebonnet)
- experiment: Flooded paddy, post-transplant rice tolerance
- Format: in vivo, Oryza sativa, (L.) Tebonnet
- run.parameters: flooded paddy, post-transplant rice; rate 0.0320 kg/ha; rated 3-4 weeks after treatment; 0-9 rating scale
recorded.endpoint: herbicidal rating, ORYSAT (rice tolerance)
Enter a number only.

COc1ccsc1-c1nsc2ccc(-n3c(=O)cc(C(F)(F)F)n(C)c3=O)cc12 ... 0.0

Answer with the recorded herbicidal rating, ORYSAT (rice tolerance) for the molecule listed here: Cc1ccc(-c2nsc3ccc(N4C(=O)C5=C(CCCC5)C4=O)cc23)s1
2.0

Specify herbicidal rating, ORYSAT (rice tolerance) for Cc1ccc(-c2nsc3ccc(-n4c(=O)cc(C(F)(F)F)n(C)c4=O)cc23)nc1 and stop.
3.0

Read the entry Cc1ccsc1-c1nsc2ccc(-n3c(=O)cc(C(F)(F)F)n(C)c3=O)cc12 and write its reported herbicidal rating, ORYSAT (rice tolerance).
3.5

###

- Test system: CHEAL (Chenopodium album)
- experiment: Preemergence herbicidal evaluation
- Type: in vivo, L.
- run.parameters: Rate 0.1250 kg/ha; rated 4-5 weeks after treatment
Preemergence herbicidal rating CHEAL reference

CC1CC(C)(C)OC(c2nsc3ccc(-n4c(=O)cc(C(F)(F)F)n(C)c4=O)cc23)O1 (centres unmarked) ... 9.0
Cn1c(C(F)(F)F)cc(=O)n(-c2ccc3snc(C4OC(C)(C)C(C)(C)O4)c3c2)c1=O ... 9.0
Cn1c(C(F)(F)F)cc(=O)n(-c2ccc3snc(C4OC(=O)C(C)(C)O4)c3c2)c1=O (centres unmarked) ... 9.0
Cc1nn(-c2nsc3ccc(-n4c(=O)cc(C(F)(F)F)n(C)c4=O)cc23)c(C)c1C ... 0.0

Now look at this entry.
Please list Preemergence herbicidal rating CHEAL recorded for the molecule Cn1c(C(F)(F)F)cc(=O)n(-c2ccc3snc(C4OCC(CO)O4)c3c2)c1=O (centres unmarked)
9.0

###

Each entry below carries its reported Postemergence herbicidal rating, IPOHE.
- Test system: IPOHE (Ipomoea hederacea)
- experiment: Postemergence herbicidal evaluation
- Type: in vivo, (L.) Jacq.
- run.parameters: rate 0.0320 kg/ha
Enter a number only.

COC(=O)C(C)Oc1ccsc1-c1nsc2ccc(-n3c(=O)cc(C(F)(F)F)n(C)c3=O)cc12 (stereo not drawn) ... 6.0
COC(=O)COc1ccsc1-c1nsc2ccc(-n3c(=O)cc(C(F)(F)F)n(C)c3=O)cc12 ... 4.0

Recall the reported Postemergence herbicidal rating, IPOHE of Cc1ccc(-c2nsc3ccc(-n4c(=O)cc(C(F)(F)F)n(C)c4=O)cc23)s1 when tested on IPOHE (Ipomoea hederacea).
9.0

Give Postemergence herbicidal rating, IPOHE only, for Cn1c(C(F)(F)F)cc(=O)n(-c2ccc3snc(C4OCCCS4)c3c2)c1=O (stereo not drawn) , using IPOHE (Ipomoea hederacea) data.
9.0

Look up and report Postemergence herbicidal rating, IPOHE, with IPOHE (Ipomoea hederacea) as system, for Cc1cccnc1-c1nsc2ccc(-n3c(=O)cc(C(F)(F)F)n(C)c3=O)cc12
8.0

Check IPOHE (Ipomoea hederacea) data and give Postemergence herbicidal rating, IPOHE for Cn1c(C(F)(F)F)cc(=O)n(-c2ccc3snc(C4OCCS4)c3c2)c1=O (stereo not drawn) .
9.0

Output reported Postemergence herbicidal rating, IPOHE of the compound Cc1ccc(-c2nsc3ccc(N4C(=O)C5=C(CCCC5)C4=O)cc23)s1 on IPOHE (Ipomoea hederacea).
6.0

Give reported Postemergence herbicidal rating, IPOHE for Cn1c(C(F)(F)F)cc(=O)n(-c2ccc3snc(C4SCCS4)c3c2)c1=O (IPOHE (Ipomoea hederacea))
9.0

Give Postemergence herbicidal rating, IPOHE for Cc1ccsc1-c1nsc2ccc(-n3c(=O)cc(C(F)(F)F)n(C)c3=O)cc12 tested on IPOHE (Ipomoea hederacea).
8.6

###

Each item that follows carries a reported ORYSAT preemergence herbicidal rating.
- Test system: ORYSAT (Rice, Tebonnet)
- experiment: Preemergence herbicidal evaluation
- Type: in vivo, Oryza sativa, (L.) Tebonnet
- run.parameters: Rate 0.2500 kg/ha; preemergence; rated 4-5 weeks after treatment

Known ORYSAT preemergence herbicidal rating results, listed for orientation:
Cc1ccn(-c2nsc3ccc(-n4c(=O)cc(C(F)(F)F)n(C)c4=O)cc23)n1 ... 7.0
CN(C(=O)c1nsc2ccc(-n3c(=O)cc(C(F)(F)F)n(C)c3=O)cc12)c1ccc(Cl)cc1 ... 8.0
Cn1c(C(F)(F)F)cc(=O)n(-c2ccc3snc(-c4ccccn4)c3c2)c1=O ... 8.0

Given the molecule COC(=O)COc1ccsc1-c1nsc2ccc(-n3c(=O)cc(C(F)(F)F)n(C)c3=O)cc12 , write its reported ORYSAT preemergence herbicidal rating.
0.0
